Origin of values: PubChem BioAssay

Experiment: A549 cell viability effects, profiling panel, calcein-AM fluorescence, 48 h, basal (AID 1162); note: test concentration not given here
Details: higher = more signal
The molecules listed here are annotated with their z-score.
A bare number is all that is needed in reply.

Worked set:
CC(C)(C)N1CC=CC23O[C@@H]4/C=C\CCCOC(=O)C4[C@H]2C(=O)N(CCO)[C@@H]3C1=O (stereo partly specified) :: -0.612
CN(C)CCCCCCNC(=O)[C@H]1C[C@H]2C(=O)N[C@@H](CCCCN)C(=O)N2[C@H]1c1ccc(O)cc1 :: -0.466
CCOC(=O)C1=CC[C@@H](c2ccccc2Cl)N(S(=O)(=O)c2ccc(C)cc2)C1 :: -0.378

API: the following record is the query input.
Requested read-out: z-score. Entry: CN1C=C(C(=O)OCCS(C)(=O)=O)C(C(=O)OCCS(C)(=O)=O)=CC(CCCO)=CC1C1CC1 (stereo unspecified)
-0.731

* * *

Assay: S. cerevisiae growth modulation with rapamycin, primary screen, strain BY4716, OD600, 96 h (AID 1091); note: test concentration not given here
Conditions: higher = more signal, called active from +8 up or from −8 down
Activity calls are given as the source filed them.
measurement.type: z-score

CN1C(=O)C2C(C1=O)C1C=C(CCCO)C2C(c2cccs2)N1C (configuration not stated) :: -0.113 (inactive)
C[N+](C)(C)CCCCCCNC(=O)[C@H]1C[C@H]2C(=O)N3CCC[C@H]3C(=O)N2[C@H]1c1ccc(O)cc1 :: -0.185 (inactive)
COCCOC(=O)N1C(=O)[C@@]2(c3cc(C#CCC(C(=O)OC)C(=O)OC)ccc31)[C@H](c1ccc(O)cc1)N1[C@H](c3ccccc3)[C@H](c3ccccc3)OC(=O)[C@H]1[C@@H]2C(N)=O :: 0.291 (inactive)
C=CC[C@@]1(C(=O)NCC(O)CO)N=C(c2ccc(OCCCO)cc2)O[C@@H]1c1ccccc1N=[N+]=[N-] (some centres not stated) :: 0.068 (inactive)
COCCOC(=O)N1C(=O)[C@@]2(c3cc(C#CCC(C(=O)OC)C(=O)OC)ccc31)[C@H](C(=O)N1CCCCCCC1)[C@H]1C(=O)O[C@H](c3ccccc3)[C@H](c3ccccc3)N1[C@@H]2c1ccc(OCCO)cc1 :: 2.66 (inactive)

Requested read-out: z-score. Entry: Cc1ccc(F)cc1S(=O)(=O)N[C@@H]1CCN(Cc2ccc(-c3ccccc3)cc2)C1
-4.06 (inactive)

Requested read-out: z-score. Entry: COCCOC(=O)N1C(=O)[C@@]2(c3cc(C#CCNC(N)=O)ccc31)[C@H](C(=O)N1CCc3cc(OC)c(OC)cc3C1)[C@H]1C(=O)O[C@H](c3ccccc3)[C@H](c3ccccc3)N1[C@@H]2c1ccc(OCCO)cc1
4.41 (inactive)

* * *

Target: Epidermal growth factor receptor (Homo sapiens) (UniProt P00533)
Sequence (P00533 whole entry, looked up): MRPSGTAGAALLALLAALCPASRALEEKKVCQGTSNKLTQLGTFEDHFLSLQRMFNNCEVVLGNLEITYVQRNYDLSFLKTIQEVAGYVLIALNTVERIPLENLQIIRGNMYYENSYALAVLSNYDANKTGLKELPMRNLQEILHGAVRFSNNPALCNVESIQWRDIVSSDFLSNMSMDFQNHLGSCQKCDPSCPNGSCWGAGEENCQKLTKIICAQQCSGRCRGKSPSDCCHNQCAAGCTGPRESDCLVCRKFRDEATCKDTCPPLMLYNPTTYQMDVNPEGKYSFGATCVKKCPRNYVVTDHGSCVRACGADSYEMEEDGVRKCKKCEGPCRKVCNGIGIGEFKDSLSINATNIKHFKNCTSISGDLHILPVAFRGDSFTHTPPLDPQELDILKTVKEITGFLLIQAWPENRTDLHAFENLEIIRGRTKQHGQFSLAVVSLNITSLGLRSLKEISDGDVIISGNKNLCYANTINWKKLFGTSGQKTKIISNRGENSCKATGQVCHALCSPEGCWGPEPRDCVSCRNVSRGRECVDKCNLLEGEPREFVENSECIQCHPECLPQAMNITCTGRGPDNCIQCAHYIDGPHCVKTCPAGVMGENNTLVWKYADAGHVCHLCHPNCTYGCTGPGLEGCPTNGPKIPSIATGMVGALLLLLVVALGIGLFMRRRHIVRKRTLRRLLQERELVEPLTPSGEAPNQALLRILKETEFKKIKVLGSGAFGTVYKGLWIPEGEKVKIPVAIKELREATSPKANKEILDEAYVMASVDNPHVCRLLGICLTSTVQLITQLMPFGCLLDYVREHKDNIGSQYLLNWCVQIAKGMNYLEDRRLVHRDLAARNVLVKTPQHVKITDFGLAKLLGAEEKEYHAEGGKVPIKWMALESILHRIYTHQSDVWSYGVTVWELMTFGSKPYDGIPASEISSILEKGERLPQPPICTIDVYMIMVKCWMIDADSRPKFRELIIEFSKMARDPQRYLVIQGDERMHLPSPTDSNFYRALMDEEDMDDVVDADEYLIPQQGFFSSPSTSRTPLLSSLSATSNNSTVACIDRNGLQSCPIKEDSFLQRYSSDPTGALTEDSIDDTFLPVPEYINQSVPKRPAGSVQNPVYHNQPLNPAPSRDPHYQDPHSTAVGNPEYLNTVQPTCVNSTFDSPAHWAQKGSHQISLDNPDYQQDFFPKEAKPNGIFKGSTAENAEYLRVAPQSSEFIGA
Test: EGFR binders on small-molecule microarrays, primary screen, biochemical, small-molecule microarray, 635 nm fluorescence (AID 1104);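 note: score merges 667 nm emission intensity with spot signal to noise over triplicate slides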
Settings: EGFR binding, higher = more signal
Parameter threshold = -0.2. Response is Yes when composite z-score meets or exceeds it, else No.

A selection of reference data follows.
C=C(COC)C(=O)CC[C@H](OC(C)=O)c1cccc(OCCO)c1 :: No
CC(C)C(=C=CC[C@@H](O)c1ccccc1OCCO)C[C@@H](O)c1ccccn1 :: Yes
COc1ccc(CCNC(=O)[C@@H]2c3ccccc3C(=O)N(Cc3ccc(OC(F)(F)F)cc3)[C@H]2c2ccc(CO)cc2)cc1 :: No
Cc1ccc(S[C@]2(C(=O)O)CC(=O)N(C3Cc4ccccc4C3)[C@@H]2c2ccc(CO)cc2I)cc1 :: No
O=C1O[C@@H](c2ccccc2)[C@@H](c2ccccc2)N2[C@@H](c3ccccc3OCCO)[C@]3(C(=O)Nc4ccc(C#CC5(O)CCCCCC5)cc43)[C@@H](C(=O)Nc3nc4ccccc4s3)[C@H]12 :: Yes
COc1ccccc1CN1C(=O)c2ccccc2[C@@H](C(=O)NCCN2CCOCC2)[C@@H]1c1ccc(CO)cc1 :: No
O=C(O)[C@@]1(Cc2ccccc2)N=C(c2ccc(OCCCO)cc2)O[C@H]1c1ccccc1 :: No

Now for a further molecule.
Does COc1cc(CO)ccc1OC(C)=O have a reported composite z-score of at least -0.2?
Yes

* * *

Test system: Sonic hedgehog protein (Shh)
Assay: small-molecule binders of Shh protein, primary screen, biochemical, small-molecule microarray, 635/667 nm fluorescence (AID 1151);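 note: Shh protein binding to compounds spotted on small-molecule microarray slides; score combines spot fluorescence intensity with signal-to-noise across triplicate slides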
Settings: small-molecule microarray binding, 635 nm fluorescence; higher = more signal
measurement.type: composite z-score
A bare number is all that is needed in reply.

Worked set:
CN1C(=O)C2C=CC(C(O)c3ccccn3)N(Nc3ccccc3)C2C1=O (configuration not stated) :: 0.207
C=CCC(OC(C)=O)[C@@H]1[C@@H](N(Cc2ccc(-c3ccccc3)cc2)C(=O)Cc2ccc(OC)cc2)c2cc(OCCCO)ccc2N1C(=O)c1ccc2ccccc2n1 (some centres not stated) :: -0.111
CCN(CC)c1ccc(N2CC=CC34O[C@@H]5/C=C\CCCOC(=O)C5[C@H]3C(=O)N(C(CO)C(C)C)[C@@H]4C2=O)cc1 (some centres not stated) :: 0.0008
Cc1ccc(S[C@]2(C(=O)NC3CC3)CC(=O)N(C3CCCCC3)[C@@H]2c2ccc(CO)cc2I)cc1 :: 1.77
COc1ccc(C#Cc2ccc3c(c2)[C@]2(C(=O)N3)[C@H](c3ccc(O)cc3)N3[C@H](c4ccccc4)[C@H](c4ccccc4)OC(=O)[C@H]3[C@@H]2C(=O)N2CCCCCCC2)cc1 :: 2.09
Cc1ccc(S[C@]2(C(=O)O)CC(=O)N(C3Cc4ccccc4C3)[C@@H]2c2ccc(CO)cc2I)cc1 :: -0.439

API: the following record is the query input.
Requested read-out: composite z-score. Entry: O=C1O[C@@H](c2ccccc2)[C@@H](c2ccccc2)N2[C@@H](c3ccc(OCCO)cc3)[C@]3(C(=O)Nc4ccccc43)[C@@H](C(=O)Nc3nc4ccccc4s3)[C@H]12
1.75

* * *

Tested on: Noggin (protein binding on small-molecule microarray)
Assay: Noggin binders on small-molecule microarray, primary screen, biochemical, 635/667 nm fluorescence (AID 1095);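 note: score merges 667 nm feature fluorescence with signal to noise over triplicate slides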
Settings: 635 nm fluorescence, higher = more signal
Parameter threshold = 0.4. Response is Satisfied when composite z-score meets or exceeds it, else Not satisfied.

COc1cc2c(cc1OC)CN(C(=O)[C@@H]1[C@H]3C(=O)O[C@H](c4ccccc4)[C@H](c4ccccc4)N3[C@H](c3ccccc3OCCO)[C@@]13C(=O)Nc1ccc(C#CCNC(N)=O)cc13)CC2 :: Satisfied

Does [N-]=[N+]=NCc1ccccc1C[C@@]1(C(=O)N2CCOCC2)N=C(c2ccc(OCCCO)cc2)O[C@@H]1c1ccccc1CN=[N+]=[N-] have a reported composite z-score of at least 0.4?
Satisfied

Does CC1=C2[C@@H](CCc3ccccc3)OB(O)C[C@@H]2n2c(=O)n(-c3ccccc3)c(=O)n2C1 have a reported composite z-score of at least 0.4?
Satisfied

Does CC(C)CNC(=O)[C@@]1(c2ccc([N+](=O)[O-])cc2)CC(=O)N(CC23CC4CC(CC(C4)C2)C3)[C@@H]1c1ccc(CO)cc1I have a reported composite z-score of at least 0.4?
Satisfied

Does CCCCC=C[C@@H](NC(=O)c1cccs1)c1ccccc1 have a reported composite z-score of at least 0.4?
Not satisfied

Does CC(=O)NCCCC[C@@H]1NC(=O)[C@@H]2C[C@H](C(=O)NCCCCCCNC(=O)CS)[C@H](c3ccc(O)cc3)N2C1=O have a reported composite z-score of at least 0.4?
Not satisfied

Does CCCCC=C[C@@H](NC(=O)c1ccc(C(=O)OC)cc1)c1ccccc1 have a reported composite z-score of at least 0.4?
Satisfied

* * *

System: Human papillomavirus type 1a protein E7 (residues 44-93)
Assay: HPV1a E7 fragment binders on microarrays, primary screen, biochemical, small-molecule microarray, residues 44-93, 635 nm fluorescence (AID 1108);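 note: E7 fragment applied at 1 µg/mL in TBST for 1 h at 4 C; score combines spot fluorescence with its signal to noise ratio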
Conditions: small-molecule microarray binding, fluorescence 635 nm; higher = more signal
Parameter threshold = 0.9. Response is True when composite z-score meets or exceeds it, else False.

A selection of reference data follows.
COCCOC(=O)N1C(=O)[C@@]2(c3cc(C#CCNC(N)=O)ccc31)[C@H](C(=O)N1CCc3cc(OC)c(OC)cc3C1)[C@H]1C(=O)O[C@H](c3ccccc3)[C@H](c3ccccc3)N1[C@@H]2c1ccc(OCCO)cc1 :: False
CC(C)N1C(=O)c2ccccc2[C@@H](C(=O)NCCCN(C)C)[C@@H]1c1ccc(CO)cc1 :: False
COc1ccc(NN2C(C(O)c3ccc(OC)c(OCc4ccccc4)c3)C=CC3C(=O)N(C4CCCCC4)C(=O)C32)cc1 (stereo unspecified) :: True

Now for a further compound.
Does CN(C)C(=O)[C@]1(CCC(=O)OC(C)(C)C)N=C(c2ccc(OCCCO)cc2)O[C@@H]1c1ccccc1N=[N+]=[N-] have a reported composite z-score of at least 0.9?
True
